assay: Ocular pharmacokinetic study in rabbit eyes, single topical ocular dose; format: in vivo; conditions: aqueous humor, single 300 μg topical ocular dose, 0.5 hr post-dosing, read-out: Aqueous Humor Concentration
Property: concentration at 0.5 hr

Form: compound = `CNC(=O)c1ccc(/C=C/C(=O)NCC(=O)N(C)c2ccc(Cl)c(COc3cccc4c(OCc5ccccn5)cc(C)nc34)c2Cl)cc1` ; concentration at 0.5 hr = 0.9 nM

###

assay: Ocular pharmacokinetic study in rabbit eyes, single topical ocular dose; type: in vivo; conditions: ciliary body, single 300 μg topical ocular dose, 6 hr post-dosing, read-out: Ciliary Body Concentration
Property: concentration at 6 hr

Looking up CNC(=O)c1ccc(/C=C/C(=O)NCC(=O)N(C)c2ccc(Cl)c(COc3cccc4c(OCc5ccccn5)cc(C)nc34)c2Cl)cc1 [FR-190997] , I see its concentration at 6 hr listed as 37 nM
